Method: Selectivity index, ratio of CC50 for mouse RAW264.7 cells to IC50 for antiparasitic activity against Leishmania amazonensis amastigote expressing Escherichia coli beta-galactosidase infected in mouse RAW264.7 cells
Format: toxicity
Condition Details: read-out: Selectivity Index
Output Fulfilled for selectivity ratio not less than 2; output Not fulfilled otherwise.

Smiles Input: C/C(=N\Nc1nc(-c2ccccc2)cs1)c1cccnc1
Label Class: Not fulfilled
--
Smiles Input: C/C(=N\N=c1\scc(-c2ccccc2)n1C)c1cccnc1
Label Class: Not fulfilled
--
Smiles Input: C/C(=N\N=c1/[nH]c(-c2ccc(C)cc2)cs1)c1cccnc1
Label Class: Not fulfilled
--
Smiles Input: C/C(=N\N=c1\scc(-c2ccc([N+](=O)[O-])cc2)n1-c1ccccc1)c1cccnc1
Label Class: Fulfilled
--
Smiles Input: CNC(=S)N/N=C(\C)c1cccnc1
Label Class: Not fulfilled
--
Smiles Input: C/C(=N\N=c1\scc(-c2cccc([N+](=O)[O-])c2)n1-c1ccccc1)c1cccnc1
Label Class: Fulfilled
--
Smiles Input: C/C(=N\N=c1\scc(-c2ccc(F)cc2)n1-c1ccccc1)c1cccnc1
Label Class: Fulfilled
--
Smiles Input: C/C(=N\N=c1/[nH]c(-c2ccc(F)cc2)cs1)c1cccnc1
Label Class: Not fulfilled
--
Smiles Input: C/C(=N\N=c1\scc(-c2ccc(C)cc2)n1-c1ccccc1)c1cccnc1
Label Class: Fulfilled
--
Smiles Input: COc1ccc(-c2cs/c(=N/N=C(\C)c3cccnc3)n2C)cc1
Label Class: Not fulfilled
--
Smiles Input: C/C(=N\N=c1\scc(-c2ccc(C)cc2)n1C)c1cccnc1
Label Class: Not fulfilled
--
Smiles Input: COc1ccc(-c2cs/c(=N/N=C(\C)c3cccnc3)[nH]2)cc1
Label Class: Fulfilled
--
Smiles Input: CCCCCCCCCCCCCCCCOP(=O)([O-])OCC[N+](C)(C)C
Label Class: Fulfilled
--
Smiles Input: C[C@@H]1[C@H](O)[C@@H](C)/C=C/C=C/C=C/C=C/C=C/C=C/C=C/[C@H](O[C@@H]2O[C@H](C)[C@@H](O)[C@H](N)[C@@H]2O)C[C@@H]2O[C@](O)(C[C@@H](O)C[C@@H](O)[C@H](O)CC[C@@H](O)C[C@@H](O)CC(=O)O[C@H]1C)C[C@H](O)[C@H]2C(=O)O
Label Class: Fulfilled
--
Smiles Input: C/C(=N\N=c1\scc(-c2ccccc2)n1-c1ccccc1)c1cccnc1
Label Class: Fulfilled
--
Smiles Input: C/C(=N\N=c1\scc(-c2ccc(F)cc2)n1C)c1cccnc1
Label Class: Not fulfilled
--
Smiles Input: C/C(=N\N=c1/[nH]c(-c2ccc([N+](=O)[O-])cc2)cs1)c1cccnc1
Label Class: Not fulfilled
--
Smiles Input: COc1ccc(-c2cs/c(=N/N=C(\C)c3cccnc3)n2-c2ccccc2)cc1
Label Class: Fulfilled
--
Smiles Input: C/C(=N\NC(N)=S)c1cccnc1
Label Class: Not fulfilled

Cited source: ChEMBL document CHEMBL6121008
